Experiment: yeast display, Sf9 membrane polyspecificity reagent, FACS + sequencing; frameworks hold sequencing errors
measurement_name: polyreactivity (PSR sort gate)

Recorded polyreactivity (PSR sort gate), per entry:
sequence_code | measurement_name | reported_value
QVQLVESGGGLVQAGGSLRLSCAASGITFYKNAMGWYRQAPGKERELVAAISSGGGTTYADSVKGRFTISRDNAKNTVYLQMNSLKPEDTAVYYCAADRRYYWYNYWGLGTQVTVSS | polyreactivity (PSR sort gate) | high polyreactivity
QVQLVESGGGLVQAGGSLRLSCAASGSIFTKYVMGWYRQAPGKERELVAAITYRGGSTYYADSVKGRFTISRDNAKNTVYLQMNSLKPEDTAVYDCAAEYYRYKYTAYRTDDYWGQGTQVTVSS | polyreactivity (PSR sort gate) | high polyreactivity
QVQLVESGGGLVQAGGSLRLSCAASGSTLYWNAMGWYRQAPGKDRELVATINTNGGSTYYADSVKGRFTISRDNAKNTVYLQMNSLKPEDTAVYYCAAQVRQWGYFRYYYWGQGTQVTVSS | polyreactivity (PSR sort gate) | high polyreactivity
QVQLVESGGGLVQAGGSLRLSCAASGSIFVPYAMGWYRQAPGKERELVAAISNGDSTYYADSVKGRFTISRDNGKNTVYLQMNSLNPEDTAVYYCAAPYAGWRDGGDYWGQGTQVTVSS | polyreactivity (PSR sort gate) | low polyreactivity
QVQLVESGGGLVQAGGSLRLSCAASGYNFDGYAMGWYRQAPGKERELVAAINSGGGTYYADSVKGRFTISRDNAKNTVYLQMNSLKPEDTAVYYCSKYTYDYWGQGTQVTVSS | polyreactivity (PSR sort gate) | low polyreactivity

Q: Look at this sequence and give its reported polyreactivity (PSR sort gate). QVQLVDSGGGLVQAGGSLRLSCAASGRTFTYYAMGWYRQAPGKERELVASISTTGRTYYADSVKGRFTITRDNAKNTVYLQMNSLKREDTAVYYCNASRVRRWNDYYKKFDYWGQGTQVTVSS
Result: high polyreactivity

Q: Likewise for QVQLVESGGGLVQAGGSLRLSCAASGSTFYRNAMGWYRQAPGKEREFVAAITTDDSTYYADSVKGRFTISRDNAKNTVYVQMNSLKPEDTAVYYCAAGLEGKATWAAVGGYDYWGQGTQVTVSS ?
Result: low polyreactivity

Q: Likewise for QVQLVESGGGLVQAGGSLRLSCAASGSTLAPYAMGGYRQAPGKERELVASINWGGTTTYYADSVKGRFTISRDNAKNTVYLQMNSLIPEDTAVYYCAALGLRWGRSGYYYEYYYWGQGTQVTVSS ?
Result: high polyreactivity

Q: Likewise for QVQLVESGGGLVQAGGSLRLSCAASGRTFYYYAMGWYRPAPGKERELVAAITSRGGSTYYADSVTGRFTISRDNAKNTVYLQMNSLKPEDTAVYYCAAEYWSTYWQSELDYWGQGTQVTVSS ?
Result: high polyreactivity

Q: Likewise for QVQHVESGGGLVQAGGILRFSSPASGGTVNINAMGWYIQAPGKERELFADISYSDGTTDYADSVKGRFTISRDNAKNTVYLQMNSLKPEDTAVYYCAAYYYYYSGFGQRSYSWGQGTNVTVSS ?
Result: low polyreactivity

Q: Likewise for QVQLVESGGGLVQAGGSLRLSCAASGRIFASYAMGWYRQAPGKERELVAAISLSGGSTYYADSVKGRFTISRDIAKNTVYLQMNSLKPEDTAVYYCAAKNYRRYRDYYWGQGTQVTVSS ?
Result: high polyreactivity
